# target_or_test_system: (α4)3(β2)2 nAChR (Homo sapiens, UniProt P17787+P43681)
# Construct: expressed in transfected cells; host or cells: Xenopus laevis oocytes injected with cRNA, 8:1 α4:β2
# Sequence (P43681 27-627): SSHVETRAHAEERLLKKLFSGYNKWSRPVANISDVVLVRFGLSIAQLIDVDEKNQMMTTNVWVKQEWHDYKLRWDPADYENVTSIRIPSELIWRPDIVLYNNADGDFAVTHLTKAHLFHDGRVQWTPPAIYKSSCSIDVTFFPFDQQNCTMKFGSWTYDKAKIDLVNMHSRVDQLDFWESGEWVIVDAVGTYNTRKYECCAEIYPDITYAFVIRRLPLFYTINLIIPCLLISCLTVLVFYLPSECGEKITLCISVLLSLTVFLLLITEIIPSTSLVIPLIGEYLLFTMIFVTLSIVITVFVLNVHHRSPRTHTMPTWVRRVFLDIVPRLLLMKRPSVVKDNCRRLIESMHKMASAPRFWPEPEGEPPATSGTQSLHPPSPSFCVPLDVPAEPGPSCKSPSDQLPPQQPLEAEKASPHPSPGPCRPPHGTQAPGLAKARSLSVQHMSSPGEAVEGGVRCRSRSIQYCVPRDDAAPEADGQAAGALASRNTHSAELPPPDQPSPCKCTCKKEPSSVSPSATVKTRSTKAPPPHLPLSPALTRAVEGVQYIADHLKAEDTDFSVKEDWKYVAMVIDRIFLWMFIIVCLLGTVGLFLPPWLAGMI
# Sequence (P17787 26-502): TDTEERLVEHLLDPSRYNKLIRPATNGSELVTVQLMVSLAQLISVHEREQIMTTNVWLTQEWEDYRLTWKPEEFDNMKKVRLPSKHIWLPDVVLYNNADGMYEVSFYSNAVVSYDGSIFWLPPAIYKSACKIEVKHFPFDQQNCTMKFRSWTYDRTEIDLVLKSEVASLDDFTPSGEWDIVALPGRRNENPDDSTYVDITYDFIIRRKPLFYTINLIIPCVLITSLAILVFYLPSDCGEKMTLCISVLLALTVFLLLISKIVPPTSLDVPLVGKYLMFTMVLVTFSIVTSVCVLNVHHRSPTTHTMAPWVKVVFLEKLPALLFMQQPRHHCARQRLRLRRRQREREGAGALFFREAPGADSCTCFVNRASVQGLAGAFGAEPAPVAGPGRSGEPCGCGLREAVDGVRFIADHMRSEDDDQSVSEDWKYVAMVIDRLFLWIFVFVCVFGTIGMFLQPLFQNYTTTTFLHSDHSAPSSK
# measurement_notes: Two-electrode voltage-clamp whole-cell currents, Xenopus oocytes expressing WT (α4)3(β2)2 nAChR
# Assay type: cell-based
# protocol_conditions: responses induced by 10 μM TC-2559; read-out: potentiation EC50
pEC50: −log10 of the molar value.
# pEC50 listing for each entry below

{"molecule": "Cc1c(-c2cc(-c3ccccc3Cl)no2)cnn1C1CCNCC1 [CMPI]", "target_or_test_system": "(α4)3(β2)2 nAChR (Homo sapiens, UniProt P17787+P43681)", "pEC50": 7.05}
{"molecule": "N#Cc1cccc(-c2nc(-c3cccnc3)no2)c1 [NS9283]", "target_or_test_system": "(α4)3(β2)2 nAChR (Homo sapiens, UniProt P17787+P43681)", "pEC50": 5.74}
